experimental readout: melting point

Take a look at these entries with their results.
compound | melting point
COc1ccc(CC(NC(=O)OCc2ccccc2)C(=O)C=[N+]=[N-])cc1 (stereo not given) | 88 to 90 °C
O=C(Nc1ccc2[nH]c(=O)oc2c1)C(=O)N1CCC(Cc2ccc(F)cc2F)CC1 | 191 °C
CN(C)S(=O)(=O)n1cnc(-c2ccc(Cl)cc2Cl)c1 | 169 to 171 °C
CCCn1cc2c(C3C(=O)Nc4ccc(Br)cc43)nc(NCCCN(C)C)nc2n1 (stereo not given) | 286 to 290 °C

Input: // lookup melting point for CC(C)(C)COC(=O)C(C#N)=Cc1cc(O)c(O)c([N+](=O)[O-])c1
Output: 173 to 179 °C

---

The entries below come with measured melting point values attached.

Take a look at these entries with their results.
molecule | melting point
N#Cc1cccc(C(=O)Nc2cccc(C(=O)NCCC(=O)OCc3ccccc3)c2)c1 | 128 to 131 °C
Cc1cc(CC(=O)O)ccc1[N+](=O)[O-] | 95 °C
N#Cc1c(NCc2ccc(N)cc2)n[nH]c1N | 168 to 170 °C
O=C(NC[C@H]1O[C@@H]1c1ccccc1)C(F)(F)F (racemic) | 79 °C
O=C(NCc1cccnc1)c1ccc2n1Cc1ccccc1N(C(=O)Cc1ccc(Cl)cc1)C2 | 83 °C

Input: // lookup melting point for NC(N)=Nc1nc(-c2nc(N)sc2C=NS(N)(=O)=O)cs1
Output: > 300 °C

Input: What do you get for O=C(CCCO)NCCO ?
Output: 54 to 56 °C

Input: What do you get for COc1cc2cc(CO)c(CO)c(-c3ccnc(NC(C)CCCO)c3)c2cc1OC (centres undefined) ?
Output: 57 to 61 °C

Input: What do you get for CCCc1nn(CC)c2c(=O)[nH]c(C)nc12 ?
Output: 211 to 213 °C

Input: What do you get for COCc1[nH]c(=O)[nH]c1C(=O)c1ccc(OC)cc1 ?
Output: 211 to 212 °C

Input: What do you get for CCCc1c(C#N)c(-c2ccc(C#N)cc2)c(C)n1Cc1cnc(Cl)c(CO)c1 ?
Output: 137 to 138 °C

Input: What do you get for CCOP(=O)(/C=C/c1cn(-c2ccccc2)nc1OCc1ccc(OCc2nc(-c3ccccc3)oc2C)c(OC)c1)OCC ?
Output: 92 to 93 °C

Input: What do you get for C=C(C)C(=O)OCCCc1ccc2c(c1)N(C(C)(C)C)N(O)N2 ?
Output: 62 to 63.2 °C

Input: What do you get for O=C(COc1cc(C(=O)O)c(O)c2ccccc12)c1ccccc1 ?
Output: 120 to 121 °C

Input: What do you get for CC(=O)c1cnccc1NC(=O)C(C)(C)C ?
Output: 95 °C

Input: What do you get for CC(C)C(=O)NC(c1ccc(Br)cc1)C(F)(F)F (centres undefined) ?
Output: 176 to 178 °C

Input: What do you get for Cc1cc(NS(=O)(=O)c2ccc(Nc3nc(OCC4CCCCC4)c4nc[nH]c4n3)cc2)nc(C)n1 ?
Output: 233 °C

Input: What do you get for Cc1ccc(S(=O)(=O)NC(=O)C2C(=O)CC(C)(C)CC2=O)cc1 ?
Output: 94 to 108 °C

Input: What do you get for Cc1cc(C)c(C)c(COc2ccccc2-c2ccoc2C(=O)NNC(=O)c2ccc(O)c(C#N)c2)c1C ?
Output: 215 to 217 °C

Input: What do you get for Cc1nc(N2CCN(Cc3ccc(F)cc3)C2=O)sc1C#N ?
Output: 136 to 139 °C

Input: What do you get for COc1ccc(-c2nc3c(OC)cccc3s2)cc1 ?
Output: 86 to 88 °C

---

The entries below come with measured melting point values attached.

Take a look at these entries with their results.
compound | melting point
O=C1NCc2c1cc1ccc3c(c1c2-c1ccc(Br)cc1)OCO3 | 273 to 274 °C
CCOC(=O)c1ncn(-c2nc(C)cs2)c1S | 193 to 195 °C
COc1cc(N)c(Cl)cc1C(=O)NC1CCN(C(C)CC(C(=O)N(C)C)(c2ccccc2)c2ccccc2)CC1O (stereo not drawn) | 132 °C
O=C1C2CCCCC2=Nc2ccccc2N1Cc1ccccc1 (stereo not drawn) | 123 to 125 °C
CC(O)(C#CCCO)c1ccc(-c2ccc(Cl)cc2)cc1 (stereo not drawn) | 105 °C

Input: // lookup melting point for COC(=O)c1cccc2c1N=C(c1ccccc1Cl)CC2=O
Output: 166 to 168 °C

Input: What do you get for COCCOc1cc(N(C)S(=O)(=O)c2cccs2)c2[nH]c(C3=NCC(CC(N)=O)S3)cc2c1 (stereo not drawn) ?
Output: 189 to 190 °C

Input: What do you get for O=c1c2ccc(Cl)cc2[nH]c2c(O)nn(Cc3ccccc3F)c(=O)c12 ?
Output: 215 °C

---

experimental readout: melting point

molecule | endpoint result
CCCc1c(OCCC(C)(C)C(=O)NCCCCc2cccnc2)ccc(C(C)=O)c1O | 80 to 83 °C
O=C(CS)N[C@@H](Cc1c[nH]cn1)C(=O)O | 198 to 200 °C
CCOP(=O)(OCC)C(CCc1cc(C)nc2c(C#N)c(-c3ccccc3)nn12)P(=O)(OCC)OCC | 107 °C
COC(=O)/C=C/C(=O)OCC(=O)N1CCOCC1 | 124 to 126 °C
CCCc1c(OCc2ccc(C=CC(=O)OC)cc2)ccc(C(C)=O)c1O | 121 to 125 °C
CCOC(=O)c1ccc(Nc2ccc([N+](=O)[O-])cc2[N+](=O)[O-])cc1 | 99 to 102 °C

Input: // lookup melting point for Cc1ccc(OC(CCCCCc2ccc(Cl)cc2)C(=O)O)cc1 (stereo unspecified)
Output: 74 to 76 °C

Input: What do you get for CC1(C)Oc2ccc(C(=O)CO)cc2[C@H](NC(=O)c2ccc(F)cc2)[C@H]1O ?
Output: 216 °C

Input: What do you get for CC1(C)C=C(c2ccccn2)c2ccc(Cl)c(Cl)c2OC1 ?
Output: 112 °C

Input: What do you get for C#CCOC(=O)Oc1ccc(C(=O)c2ccc(OC(=O)OCC#C)cc2)cc1 ?
Output: 104 to 106 °C

Input: What do you get for C=CCN1C(=O)C(C)(CN2CCN(c3cccc4c3OCCO4)CC2)N=C1c1cccnc1 (stereo unspecified) ?
Output: 102 to 105 °C

---

The entries below come with measured melting point values attached.

compound | melting point
O=C(O)C1CNC(C(=O)O)c2[nH]c3ccc(F)cc3c21 (centres undefined) | 233 to 234 °C
Nc1ncccc1-c1nc2cc(F)cnc2n1-c1ccc(CC(=O)Nc2ccccc2)cc1 | 240 to 242 °C
Cn1cncc1C(O)(c1ccc(Cl)cc1)c1ccc2nc(-c3cccnc3)nc(-c3cccc(Cl)c3)c2c1 (centres undefined) | 178 °C

Input: // lookup melting point for CCOC(=O)C(=O)C(C#N)c1cccc(Oc2ccccc2)c1 (centres undefined)
Output: 105 to 109 °C

Input: What do you get for COc1cc(C(O)CN2CCC(C(c3ccccc3)c3ccccc3)CC2)on1 (centres undefined) ?
Output: 121 to 126 °C

Input: What do you get for Clc1ccc2nc(NCc3ccco3)nc(-c3ccccc3)c2c1 ?
Output: 142 °C

Input: What do you get for COc1cc(CC(=O)NCCOCc2ccc(C)c(C)c2)ccc1OCCN ?
Output: 60 to 62 °C

Input: What do you get for CCc1cc(=O)c2ccc(O)cc2o1 ?
Output: 189 °C

---

experimental readout: melting point

Take a look at these entries with their results.
compound | melting point
Cc1ccsc1C(=O)c1cc(CN(C)C)c(O)c(C(C)(C)C)c1 | 149 to 150 °C
Cc1cn(C2CC(O)C(CO[Si](C)(C)C(C)(C)C)O2)c(=O)[nH]c1=O (stereo unspecified) | 193 to 194 °C
O=C(Nc1ccc(O)cn1)C(CC1CCCC1)c1ccc(Cl)c(Cl)c1 (stereo unspecified) | 79 to 81 °C
COC(=O)Nc1cc(-c2nccs2)[nH]c1C(CC1CCOCC1)c1ccc(S(=O)(=O)C2CC2)cc1 (stereo unspecified) | 120 to 122 °C
O=C(CCCN1CCN(c2ncc3ccccc3n2)CC1)c1ccc(F)cc1 | 129 to 131 °C

// below: melting point requested for another compound
Input: // lookup melting point for C=C1CCc2[nH]c3c(c2C1=O)CCC3
Output: 214 to 215 °C

---

The entries below come with measured melting point values attached.

Take a look at these entries with their results.
compound | melting point
O=c1c2c(CC3CCCCC3)n[nH]c2c2cccnc2n1-c1ccccc1 | 280 to 281 °C
CCN1c2ncc(CN(C)c3ccccc3)cc2C(=O)N(C)c2ccc(Cl)nc21 | 55 to 57 °C
O=C1CNCCN1c1ccc([N+](=O)[O-])cc1 | 150 to 153 °C

Input: // lookup melting point for CSc1ccc(CC2=C(O)CSC2=O)cc1
Output: 206 to 208 °C

Input: What do you get for CC(=O)N1CC(C)=NN(c2cc(Cl)c(Cc3ccc(Cl)cc3)c(Cl)c2)C1=O ?
Output: 101 to 102 °C

Input: What do you get for CC(=O)N1C(=O)NC(=O)CC1C (stereo not given) ?
Output: 107 to 109 °C

Input: What do you get for CCC1C(=O)N(CCCCN2CCN(c3ccccn3)CC2)c2cc(F)ccc21 (stereo not given) ?
Output: 137 to 139 °C

Input: What do you get for CC(=O)NCCOc1cc(-c2ccccc2)on1 ?
Output: 144 to 145 °C

Input: What do you get for CCOC(=O)c1ccc2ccccn2c1=O ?
Output: 105 to 109 °C

Input: What do you get for N#CCCNc1ccc(CCCN2CCN(c3ccccc3)CC2)cc1 ?
Output: 141 to 143 °C

Input: What do you get for CC1CCC(N2c3ccccc3Oc3ccccc32)=N1 (stereo not given) ?
Output: 135 to 137 °C

Cited source for all entries: a melting point compilation (Tetko et al.; mined from patent text by program, amines drawn as free bases though some values may be those of a salt)
